Source: patent US7807672B2

Target: fully phosphorylated, active Mouse ERK2 protein (Mus musculus, UniProt P63085)
Sequence (P63085 whole entry): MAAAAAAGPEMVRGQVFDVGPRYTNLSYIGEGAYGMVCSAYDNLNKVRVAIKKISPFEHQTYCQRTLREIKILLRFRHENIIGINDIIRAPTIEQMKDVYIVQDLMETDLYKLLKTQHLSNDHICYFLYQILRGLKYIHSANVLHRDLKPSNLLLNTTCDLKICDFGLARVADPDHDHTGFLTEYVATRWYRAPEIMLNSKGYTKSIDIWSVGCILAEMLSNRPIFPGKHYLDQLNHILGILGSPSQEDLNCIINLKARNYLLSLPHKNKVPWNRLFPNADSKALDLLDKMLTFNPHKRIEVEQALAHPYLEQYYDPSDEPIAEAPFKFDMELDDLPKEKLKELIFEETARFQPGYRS
Experiment: Active ERK2 assay (AERK2), IMAP format
Conditions: activated ERK2, IMAP fluorescence polarization, 30 μM ATP
observed_property: IC50 (µM)
Numeric only. Scale: µM

In: Lab note: record IC50 of C/C(=N\O)c1cnc(-c2ccc(N3CCN(C(=O)CN4CC[C@@H](C(=O)Nc5ccc(O)c(Cl)c5)C4)CC3)cc2)nc1 tested on fully phosphorylated, active Mouse ERK2 protein (Mus musculus, UniProt P63085).
Out: 0.057

In: Report IC50 from fully phosphorylated, active Mouse ERK2 protein (Mus musculus, UniProt P63085) testing of O=C(Nc1ccc(O)c(C2CC2)c1)[C@@H]1CCN(CC(=O)N2CCN(c3ccc(-c4ncccn4)cc3)CC2)C1
Out: 0.039

In: Give IC50; test system fully phosphorylated, active Mouse ERK2 protein (Mus musculus, UniProt P63085); compound CO/N=C(\C)c1cnc(-c2ccc(N3CCN(C(=O)CN4CC[C@@H](C(=O)Nc5ccc(O)c(Cl)c5)C4)CC3)cc2)nc1
Out: 0.018
